tested on: HCT-116; test: in vitro colon cancer cell growth inhibition (NCI screen)
cytotoxicity log GI50 overview
The figure you give is taken to be in M; do not add the unit.

A selection of reference data follows.
{"compound": "COc1ccc(Cn2c(C)nc3c2C(=O)c2ccccc2C3=O)cc1 [Compound 18]", "cytotoxicity log GI50 [M]": -5.43}
{"compound": "O=C(O)CCc1nc2c(n1-c1ccccc1)C(=O)c1ccccc1C2=O [Compound 60]", "cytotoxicity log GI50 [M]": -4.30}
{"compound": "COc1ccc(C(=O)NC2=C(Cl)C(=O)c3ccccc3C2=O)cc1 [Compound 2g]", "cytotoxicity log GI50 [M]": -6.36}
{"compound": "CC(=O)NC1=C(NCC(C)C)C(=O)c2ccccc2C1=O [Compound 31]", "cytotoxicity log GI50 [M]": -4.69}
{"compound": "CCNC1=C(NC(=O)CC)C(=O)c2ccccc2C1=O [Compound 45]", "cytotoxicity log GI50 [M]": -4.44}
{"compound": "Cc1nc2c(n1Cc1ccc(F)cc1)C(=O)c1ccccc1C2=O [Compound 19]", "cytotoxicity log GI50 [M]": -5.16}
{"compound": "Cc1nc2c(n1CC(C)C)C(=O)c1ccccc1C2=O [Compound 7]", "cytotoxicity log GI50 [M]": -4.68}
{"compound": "O=C(Cc1ccccc1F)NC1=C(Cl)C(=O)c2ccccc2C1=O [Compound 2i]", "cytotoxicity log GI50 [M]": -6.37}

Q) Returns the measured cytotoxicity log GI50 for the input compound. Input: CC(=O)NC1=C(NCCN(C)C)C(=O)c2ccccc2C1=O [Compound 39]
A) -5.08

Q) Returns the measured cytotoxicity log GI50 for the input compound. Input: Cc1nc2c(n1CCC(C)C)C(=O)c1ccccc1C2=O [Compound 11]
A) -5.17

Q) Returns the measured cytotoxicity log GI50 for the input compound. Input: O=C(O)CCCc1nc2c(n1-c1ccccc1)C(=O)c1ccccc1C2=O [Compound 58]
A) -4.31

Q) Returns the measured cytotoxicity log GI50 for the input compound. Input: Cc1nc2c(n1CCO)C(=O)c1ccccc1C2=O [Compound 16]
A) -4.72

====

system: OVCAR-4; test: in vitro ovarian cancer cell growth inhibition (NCI screen); conditions: OVACR-4
cytotoxicity log GI50 overview
The figure you give is taken to be in M; do not add the unit.

A selection of reference data follows.
{"input smiles": "O=C(O)CCCc1nc2c(n1Cc1ccccc1)C(=O)c1ccccc1C2=O", "units label": "M", "reported measurement": -4.69}
{"input smiles": "CCn1c(-c2ccccc2)nc2c1C(=O)c1ccccc1C2=O", "units label": "M", "reported measurement": -4.90}
{"input smiles": "COC(=O)CCCC(=O)NC1=C(Nc2ccc(OC)cc2)C(=O)c2ccccc2C1=O", "units label": "M", "reported measurement": -4.75}
{"input smiles": "CC(=O)NC1=C(NCCN(C)C)C(=O)c2ccccc2C1=O", "units label": "M", "reported measurement": -5.05}

Moving on to another molecule below.
Q) Returns the measured cytotoxicity log GI50 for the input molecule. Input: O=C(Cc1ccccc1F)NC1=C(Cl)C(=O)c2ccccc2C1=O
A) -6.22

====

test system: M19-MEL; test: in vitro melanoma cell growth inhibition (NCI screen)
# cytotoxicity log GI50 >= -5 M gives YES, anything below gives NO

Here are 3 molecules together with their reported answers.
{"input smiles": "Cc1nc2c(n1CCO)C(=O)c1ccccc1C2=O", "category": "NO"}
{"input smiles": "CC(=O)NC1=C(NCC(C)C)C(=O)c2ccccc2C1=O", "category": "YES"}
{"input smiles": "NC1=C(NC(=O)Cc2ccccc2F)C(=O)c2ccccc2C1=O", "category": "NO"}

Here is the next item to consider.
Q) Can CC(=O)NC1=C(NCc2ccc(Cl)cc2)C(=O)c2ccccc2C1=O be said to have cytotoxicity log GI50 at or above -5 M?
A) NO
